Source of measurements: patent US20260234157A1

- System Name: AR protein (Homo sapiens, UniProt P10275, T878A)
- Construct: degradation activity of the compounds disclosed in the present disclosure on AR protein in LNCaP cells; host or cells: LNCaP FGC
- Sequence (P10275 whole entry T878A): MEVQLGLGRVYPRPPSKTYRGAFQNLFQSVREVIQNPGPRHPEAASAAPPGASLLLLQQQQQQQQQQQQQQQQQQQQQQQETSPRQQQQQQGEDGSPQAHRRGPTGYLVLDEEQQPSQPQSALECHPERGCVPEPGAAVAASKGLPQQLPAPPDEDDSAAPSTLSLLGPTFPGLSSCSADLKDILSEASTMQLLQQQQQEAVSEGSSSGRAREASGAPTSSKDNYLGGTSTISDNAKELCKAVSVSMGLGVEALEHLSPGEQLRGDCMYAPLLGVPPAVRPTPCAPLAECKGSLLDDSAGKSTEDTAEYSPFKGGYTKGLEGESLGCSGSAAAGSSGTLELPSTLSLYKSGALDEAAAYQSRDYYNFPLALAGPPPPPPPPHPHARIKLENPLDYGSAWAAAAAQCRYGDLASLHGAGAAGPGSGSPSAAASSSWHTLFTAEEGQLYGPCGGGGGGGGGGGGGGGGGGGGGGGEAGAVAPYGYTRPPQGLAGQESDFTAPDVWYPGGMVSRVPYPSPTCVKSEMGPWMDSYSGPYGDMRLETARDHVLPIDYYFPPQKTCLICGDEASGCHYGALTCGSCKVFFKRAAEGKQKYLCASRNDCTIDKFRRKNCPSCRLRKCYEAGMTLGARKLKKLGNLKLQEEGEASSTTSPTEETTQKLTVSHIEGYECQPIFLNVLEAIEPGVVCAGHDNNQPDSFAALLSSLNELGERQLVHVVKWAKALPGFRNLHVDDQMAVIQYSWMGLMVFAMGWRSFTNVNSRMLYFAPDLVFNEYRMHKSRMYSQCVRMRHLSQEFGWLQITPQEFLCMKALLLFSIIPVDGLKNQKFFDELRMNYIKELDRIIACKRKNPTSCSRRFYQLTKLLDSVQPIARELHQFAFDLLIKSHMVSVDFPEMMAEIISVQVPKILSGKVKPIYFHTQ
- Run Description: Degradation of AR protein in LNCaP cells (Western blot)
- Assay type: cell-based
- Measurement Conditions: LNCaP cells, compound 10 nM, 8 hours, Western blot grayscale, GAPDH internal reference; read-out: Degradation rates of the AR protein in LNCaP cells, 10 nM (%)
Property Name: inhibition at 0.01 µM (%)
Numeric only. Scale: %

Would you please look over these solved cases?
COc1cc(O[C@H]2C(C)(C)[C@H](NC(=O)c3ccc(N4CCC(F)(CN5CC6(CCc7cc8c(cc7O6)C(=O)N(C6CCC(=O)NC6=O)C8=O)C5)CC4)cc3)C2(C)C)ccc1C#N (stereo partly shown) [Compound 269]: 35
COc1cc(O[C@H]2C(C)(C)[C@H](NC(=O)c3ccc(N4CCC(C)(CN5CC6(CCc7ccc8c(c7O6)C(=O)N(C6CCC(=O)NC6=O)C8=O)C5)CC4)cc3)C2(C)C)ccc1C#N (stereo partly shown) [Compound 290]: -14
CCOC1(CN2CCC3(CC2)COc2c3ccc3c2C(=O)N(C2CCC(=O)NC2=O)C3=O)CCN(c2ccc(C(=O)N[C@H]3CC[C@H](Oc4ccc(C#N)c(C(F)(F)F)c4)CC3)nn2)CC1 (stereo partly shown) [Compound 242]: -18
N#Cc1ccc(O[C@H]2CC[C@H](NC(=O)c3ccc(N4CCC5(CC(N6CCC7(CC6)COc6cc8c(cc6C7)C(=O)N(C6CCC(=O)NC6=O)C8=O)C5)C4)nn3)CC2)cc1Cl (stereo partly shown) [Compound 63]: 0
N#Cc1ccc(O[C@H]2CC[C@H](NC(=O)c3ccc(N4CC5(CCC(N6CCC7(CC6)COc6c7ccc7c6CN(C6CCC(=O)NC6=O)C7=O)CC5)C4)nn3)CC2)cc1Cl (stereo partly shown) [Compound 168]: 70

Given the entry CCC1(CN2CCC3(CC2)COc2c3ccc3c2CN(C2CCC(=O)NC2=O)C3=O)CCN(c2ccc(C(=O)N[C@H]3C(C)(C)[C@H](Oc4ccc(C#N)c(OC)c4)C3(C)C)cc2)CC1 (stereo partly shown) [Compound 294] , report its measured inhibition at 0.01 µM.
54

Try the compound N#Cc1ccc(O[C@H]2CC[C@H](NC(=O)c3ccc(N4CCC(CN5CCC6(CC5)Cc5cc7c(cc5O6)C(=O)N(C5CCC(=O)NC5=O)C7=O)CC4)nn3)CC2)cc1Cl (stereo partly shown) [Compound 78]
67

Try the compound COc1cc(O[C@H]2C(C)(C)[C@H](NC(=O)c3ccc(N4CCC(CN5CCC6(CCc7ccc8c(c7O6)CN(C6CCC(=O)NC6=O)C8=O)CC5)CC4)cc3)C2(C)C)ccc1C#N (stereo partly shown) [Compound 298]
27

Try the compound N#Cc1ccc(O[C@H]2CC[C@H](NC(=O)c3ccc(C#Cc4ccc(N5CCC6(CC5)COc5c6ccc6c5CN(C5CCC(=O)NC5=O)C6=O)nc4)nn3)CC2)cc1Cl (stereo partly shown) [Compound 239]
65

Try the compound N#Cc1ccc(O[C@H]2CC[C@H](NC(=O)c3ccc(N4CCN(C(=O)CN5CCC6(CC5)COc5c6ccc6c5CN(C5CCC(=O)NC5=O)C6=O)CC4)nn3)CC2)cc1Cl (stereo partly shown) [Compound 233]
49
